Reference for the values: patent US11702404B2

# assay-protocol: Microsomal stability, human liver microsomes (predicted hepatic clearance)
# applied-conditions: predicted from in vitro microsomal stability data
Measured Predicted Hepatic Clearance (Pred. Cl.) by item

Worked examples, 4 compounds total:
compound | measurement
CC1(Cn2c(Cc3ccc(-c4cccc(OCc5ccc(C#N)cc5F)n4)cc3F)nc3ccc(C(=O)NS(=O)(=O)C4CC4)cc32)CC1 | <1.83 mL/min/kg
N#Cc1ccc(COc2cccc(-c3ccc(Cc4nc5ccc(C(=O)O)cc5n4C[C@@H]4CCN4C4COC4)c(F)c3)n2)c(F)c1 [Example 395] | <1.83 mL/min/kg
N#Cc1ccc(COc2cccc(-c3ccc(Cc4nc5ccc(C(=O)O)cc5n4CC4CCO4)c(F)c3)n2)c(F)c1 (single isomer, unassigned) [Example 68] | <1.83 mL/min/kg
COc1cc(C#N)ccc1COc1cccc(-c2cc(F)c(Cc3nc4ccc(C(=O)O)cc4n3CC3(CC#N)CC3)cc2F)n1 | <1.83 mL/min/kg

Supply measured Predicted Hepatic Clearance (Pred. Cl.) of CCn1cncc1Cn1c(Cc2ccc(-c3ccc(F)c(OCc4ccc(Cl)cc4F)c3)cc2F)nc2ccc(C(=O)O)cc21 in your reply. 3.83 mL/min/kg

Supply measured Predicted Hepatic Clearance (Pred. Cl.) of COCCn1c(Cc2ccc(-c3cccc(OCC(=O)c4ccc(Cl)cc4)n3)cc2F)nc2ccc(C(=O)O)cc21 in your reply. <1.83 mL/min/kg

Supply measured Predicted Hepatic Clearance (Pred. Cl.) of COCCn1c(Cc2c(F)cc(-c3csnc3OCc3ccc(C#N)cc3F)cc2F)nc2ccc(C(=O)O)cc21 in your reply. 13.4 mL/min/kg

Supply measured Predicted Hepatic Clearance (Pred. Cl.) of N#Cc1ccc(COc2nccc(-c3ccc(Cc4nc5c(F)cc(C(=O)O)cc5n4CC4(CF)CC4)cc3F)n2)c(F)c1 in your reply. 5.17 mL/min/kg

----------
Measured log10(EC50) by item
# tested-system: GLP-1R (Homo sapiens, UniProt P43220)
# Sequence (P43220 24-463): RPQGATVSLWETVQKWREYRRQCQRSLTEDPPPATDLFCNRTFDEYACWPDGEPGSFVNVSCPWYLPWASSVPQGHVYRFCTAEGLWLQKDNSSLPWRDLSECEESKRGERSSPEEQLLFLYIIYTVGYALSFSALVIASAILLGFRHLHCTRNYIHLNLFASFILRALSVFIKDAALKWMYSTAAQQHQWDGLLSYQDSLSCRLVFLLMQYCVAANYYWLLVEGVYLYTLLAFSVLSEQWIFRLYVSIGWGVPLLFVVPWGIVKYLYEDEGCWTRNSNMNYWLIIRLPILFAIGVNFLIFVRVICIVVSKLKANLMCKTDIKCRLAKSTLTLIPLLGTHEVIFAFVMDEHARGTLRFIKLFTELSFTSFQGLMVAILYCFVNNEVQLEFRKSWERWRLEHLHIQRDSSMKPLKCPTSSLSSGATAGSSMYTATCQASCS
# assay-protocol: GLP-1R activation: cAMP increase in CHO cells stably expressing GLP-1R
# Type: cell-based
# applied-conditions: cAMP increase, CHO cells stably expressing GLP-1R, 10 point dose response, 30 minutes incubation; read-out: EC50
Would you kindly interpret these values as log10 of EC50 expressed in nM?

Worked examples, 6 compounds total:
compound | tested-system | log10(EC50)
N#Cc1ccc(COc2cccc(-c3ccc(Cc4nc5ccc(C(=O)O)cc5n4Cc4cn[nH]c4)c(F)c3)n2)c(F)c1 | GLP-1R (Homo sapiens, UniProt P43220) | 1.29
COCCn1c(Cc2ccc(-c3cccc(OCc4cccc(S(C)(=O)=O)c4)n3)cc2F)nc2ccc(C(=O)O)cc21 | GLP-1R (Homo sapiens, UniProt P43220) | 2.89
COCCn1c(Cc2ccc(-c3cccc(OCc4ccc(C#N)cc4OC4CC4)n3)cc2F)nc2ccc(C(=O)O)cc21 | GLP-1R (Homo sapiens, UniProt P43220) | 1.98
COCCn1c(Cc2cc(F)c(-c3ccnc(OCc4ccc(C(F)F)cc4F)n3)cc2F)nc2c(F)cc(C(=O)O)cc21 | GLP-1R (Homo sapiens, UniProt P43220) | -0.24
COC1(Cn2c(Cc3cc(F)c(-c4cccc(OCc5ccc(C#N)cc5F)n4)cc3F)nc3ccc(C(=O)O)cc32)CN(C2COC2)C1 | GLP-1R (Homo sapiens, UniProt P43220) | 2.77
O=C(O)c1cc(F)c2nc(Cc3cc(F)c(-c4nc(OCc5ccc(C(F)F)cc5F)ccc4F)cc3F)n(C[C@@H]3CCO3)c2c1 | GLP-1R (Homo sapiens, UniProt P43220) | -1.52

Supply measured log10(EC50) of N#Cc1ccc(COc2cccc(-c3cc(F)c(Cc4nc5ccc(C(=O)O)cc5n4CC45CC(C#N)(CO4)C5)cc3F)n2)c(F)c1 in your reply. 1.57

----------
Measured EC50 by item
# tested-system: GLP-1R (Homo sapiens, UniProt P43220)
# assay-protocol: GLP-1R activation: cAMP increase in CHO cells stably expressing GLP-1R
# Type: cell-based
# applied-conditions: cAMP increase, CHO cells stably expressing GLP-1R, 10 point dose response, 30 minutes incubation; read-out: EC50

Worked examples, 5 molecules total:
smiles-input | EC50
CO[C@H]1CC[C@@H]1n1c(Cc2cc(F)c(-c3cccc(OCc4ccc(C#N)cc4F)n3)cc2F)nc2ccc(C(=O)O)cc21 | 0.145 µM
COCCn1c(Cc2ccc(-c3cccc(OCc4ccc(F)cc4)n3)cc2F)nc2ccc(C(=O)O)cc21 | 0.0306 µM
CO[C@@H](C)Cn1c(Cc2cc(F)c(-c3cccc(OCc4ccc(C#N)cc4F)n3)cc2F)nc2ccc(C(=O)O)cc21 | 0.00215 µM
N#Cc1ccc(COc2cccc(-c3ccc(Cc4nc5ccc(C(=O)O)cc5n4[C@H]4CCOC4)c(F)c3)n2)c(F)c1 | 0.00737 µM
N#Cc1ccc(COc2cccc(-c3ccc(Cc4nc5ccc(C(=O)O)cc5n4CC4(CF)CC4)cc3F)n2)c(F)c1 | 0.00054 µM

Supply measured EC50 of COCCn1c(Cn2c(C)cc(-c3cccc(OCc4ccc(C#N)cc4F)n3)cc2=O)nc2ccc(C(=O)O)cc21 in your reply. 0.0698 µM

Supply measured EC50 of COCCn1c(Cc2ccc(-c3cccc(OCc4ccc(C#N)cc4F)n3)c(C(F)(F)F)c2)nc2ccc(C(=O)O)cc21 in your reply. 2.18 µM

Supply measured EC50 of COCCn1c(Cc2ccc(-c3cccc(OCc4ccc(C#N)cc4F)n3)cc2F)nc2c(OC)cc(C(=O)O)cc21 in your reply. 0.175 µM

Supply measured EC50 of O=C(O)c1ccc2nc(Cc3ccc(-c4cccc(OCc5ccc(Cl)nc5)n4)c(F)c3)n(C[C@@H]3CCO3)c2c1 in your reply. 0.00054 µM

Supply measured EC50 of N#Cc1ccc(COc2cccc(-c3cc(F)c(Cc4nc5ccc(C(=O)O)cc5n4Cc4ccccn4)cc3F)n2)c(F)c1 in your reply. 0.0956 µM

----------
Measured Predicted Hepatic Clearance (Pred. Cl.) by item
# assay-protocol: Microsomal stability, human liver microsomes (predicted hepatic clearance)
# applied-conditions: predicted from in vitro microsomal stability data
Quick note: give the figure in mL/min/kg, leave out the unit.

Worked examples, 4 compounds total:
smiles-input | Predicted Hepatic Clearance (Pred. Cl.), mL/min/kg
COCCn1c(Cc2ccc(-c3nc(OCc4ccc(C#N)cc4F)cs3)cc2F)nc2ccc(C(=O)O)cc21 | 6.33
COCCn1c(Cc2ccc(-c3cccc(OCc4ccc(C#N)cc4F)n3)c(NC(C)=O)c2)nc2ccc(C(=O)O)cc21 | 14
COCCn1c(Cc2ccc(-c3cc(C#N)cc(OCc4ccc(C#N)cc4F)c3)cc2F)nc2ccc(C(=O)O)cc21 | 5.17
N#Cc1cc(F)c(COc2ncc(F)c(-c3cc(F)c(Cc4nc5ccc(C(=O)O)cc5n4C[C@@H]4CCO4)cc3F)n2)cc1F | 8.83

// next item, Predicted Hepatic Clearance (Pred. Cl.) requested
Supply measured Predicted Hepatic Clearance (Pred. Cl.) of N#Cc1ccc(COc2cccc(-c3ccc(Cc4nc5cccc(C(=O)O)c5n4CC4(CF)CC4)c(F)c3)n2)c(F)c1 in your reply. 7.5

----------
# tested-system: GLP-1R (Homo sapiens, UniProt P43220)
# assay-protocol: GLP-1R activation: cAMP increase in CHO cells stably expressing GLP-1R
# Type: cell-based
# applied-conditions: cAMP increase, CHO cells stably expressing GLP-1R, 10 point dose response, 30 minutes incubation; read-out: EC50
Measured EC50 by item
Quick note: give the figure in nM, leave out the unit.

Worked examples, 3 compounds total:
smiles-input | EC50 [nM]
N#Cc1ccc(COc2cccc(-c3cnc(Cc4nc5ccc(C(=O)O)cc5n4C[C@@H]4CCO4)c(F)c3)n2)c(F)c1 | 0.59
N#Cc1ccc(COc2nccc(-c3cc(F)c(Cc4nc5ccc(C(=O)NS(=O)(=O)C6CC6)cc5n4C[C@@H]4CCO4)cc3F)n2)c(F)c1 | 1.05
COCCn1c(Cc2cc(F)c(-c3cccc(OCc4ccc(F)cc4C)n3)cc2F)nc2ccc(C(=O)O)cc21 | 1

Supply measured EC50 of N#Cc1ccc(COc2cccc(-c3cc(F)c(Cc4nc5c(F)cc(C(=O)O)cc5n4CC4(CF)CC4)cc3F)n2)c(F)c1 in your reply. 1.23

Supply measured EC50 of N#Cc1ccc(COc2nc(-c3cc(F)c(Cc4nc5ccc(C(=O)O)cc5n4CC4(CF)CC4)cc3F)ncc2F)c(F)c1 in your reply. 1

Supply measured EC50 of COc1cc(Cl)ccc1COc1nccc(-c2ccc(Cc3nc4ccc(C(=O)O)cc4n3CC3(CF)CC3)cc2F)n1 in your reply. 0.6

Supply measured EC50 of CO[C@@H]1CCC[C@@H]1n1c(Cc2cc(F)c(-c3cccc(OCc4ccc(C#N)cc4F)n3)cc2F)nc2ccc(C(=O)O)cc21 in your reply. 0.64
